TARGET DESC: T1, Vtc4* (Vtc4(1–487), SPX and TTM domains of Vtc4 without the transmembrane domain) (S. cerevisiae, UniProt P47075 1-487, RED-tris-NTA 2nd generation dye on the His tag (MST); RED-NHS 2nd generation dye (MST with TTM2))
T1 construct: Vtc4, catalytic subunit of the vacuolar transporter chaperone (VTC) complex, yeast, residues 1-487 (SPX and TTM domains, no transmembrane domain); pET27b(+) construct from GenScript with a C-terminal TEV site and His10 tag; The dye is absent in NMR and cross-linking; also called Vtc4ΔTM; source: E. coli Lemo21(DE3) BL21, purified (HisTrap, Superdex 200); not shown: His10, C-terminal, kept
T1 sequence (P47075 1-487): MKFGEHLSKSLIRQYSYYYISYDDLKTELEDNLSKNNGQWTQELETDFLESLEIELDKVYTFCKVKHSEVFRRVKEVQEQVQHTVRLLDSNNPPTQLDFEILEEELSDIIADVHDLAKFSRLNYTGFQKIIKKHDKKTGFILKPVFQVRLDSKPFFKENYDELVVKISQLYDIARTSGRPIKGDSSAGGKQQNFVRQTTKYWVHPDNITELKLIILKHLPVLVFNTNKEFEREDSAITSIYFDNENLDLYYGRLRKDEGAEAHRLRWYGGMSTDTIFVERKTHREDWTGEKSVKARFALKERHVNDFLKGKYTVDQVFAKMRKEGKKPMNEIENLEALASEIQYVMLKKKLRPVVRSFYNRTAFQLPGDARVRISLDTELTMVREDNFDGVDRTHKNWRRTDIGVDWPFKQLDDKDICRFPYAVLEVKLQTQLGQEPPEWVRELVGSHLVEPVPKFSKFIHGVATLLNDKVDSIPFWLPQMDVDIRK
ASSAY PROCEDURE: MST; His-tagged Vtc4* or TTM4 labelled with RED-tris-NTA 2nd generation dye, titrated with Vtc2* or SPX2 proteins; MST buffer 15 mM HEPES pH 7.0, 50 mM NaCl, 2 mM DTT; Monolith NT.115, 100 % laser power
CONDITION SET: both partners purified
PROPERTY MEASURED: binding result

BINDER	PROPERTY MEASURED	ASSAY VALUE
SPX2 K127A (domain or fragment, S. cerevisiae, UniProt P43585 1-201, looked up, Vtc2, S. cerevisiae, residues 1-201 (SPX2) with a pseudo-active point mutation; source: E. coli Lemo21(DE3) BL21, purified; not shown: His5, C-terminal, cleaved) MLFGVKLANEVYPPWKGSYINYEGLKKFLKEDSVKDGSNDKKARWDDSDESKFVEELDKELEKVYGFQLKKYNNLMERLSHLEKQTDTEAAIKALDADAFQRVLEELLSESTELDNFKRLNFTGFAAIVKKHDKLYPKYPSVKSLLEVRLKELPSHSEEYSPLLYRISFLYNILRSNFNTASEPLASASKFSSIVSNDIDM	binding result	binds
SPX2 Y19F (domain or fragment, S. cerevisiae, UniProt P43585 1-201, looked up, Vtc2, S. cerevisiae, residues 1-201 (SPX2) with a pseudo-active point mutation; source: E. coli Lemo21(DE3) BL21, purified; not shown: His5, C-terminal, cleaved) MLFGVKLANEVYPPWKGSFINYEGLKKFLKEDSVKDGSNDKKARWDDSDESKFVEELDKELEKVYGFQLKKYNNLMERLSHLEKQTDTEAAIKALDADAFQRVLEELLSESTELDNFKRLNFTGFAKIVKKHDKLYPKYPSVKSLLEVRLKELPSHSEEYSPLLYRISFLYNILRSNFNTASEPLASASKFSSIVSNDIDM	binding result	binds
SPX2 N121A (domain or fragment, S. cerevisiae, UniProt P43585 1-201, looked up, Vtc2, S. cerevisiae, residues 1-201 (SPX2) with a pseudo-active point mutation; source: E. coli Lemo21(DE3) BL21, purified; not shown: His5, C-terminal, cleaved) MLFGVKLANEVYPPWKGSYINYEGLKKFLKEDSVKDGSNDKKARWDDSDESKFVEELDKELEKVYGFQLKKYNNLMERLSHLEKQTDTEAAIKALDADAFQRVLEELLSESTELDNFKRLAFTGFAKIVKKHDKLYPKYPSVKSLLEVRLKELPSHSEEYSPLLYRISFLYNILRSNFNTASEPLASASKFSSIVSNDIDM	binding result	binds
